molecular target: recombinant rat α5β3γ2 receptors (Rattus norvegicus, UniProt P18508+P19969); experiment: Two-electrode voltage clamp of GABA-induced chloride currents in Xenopus oocytes; format: cell-based; conditions: 10 nM; α5β3γ2; ns = not significant
Sequence (P19969 32-464 limits assumed): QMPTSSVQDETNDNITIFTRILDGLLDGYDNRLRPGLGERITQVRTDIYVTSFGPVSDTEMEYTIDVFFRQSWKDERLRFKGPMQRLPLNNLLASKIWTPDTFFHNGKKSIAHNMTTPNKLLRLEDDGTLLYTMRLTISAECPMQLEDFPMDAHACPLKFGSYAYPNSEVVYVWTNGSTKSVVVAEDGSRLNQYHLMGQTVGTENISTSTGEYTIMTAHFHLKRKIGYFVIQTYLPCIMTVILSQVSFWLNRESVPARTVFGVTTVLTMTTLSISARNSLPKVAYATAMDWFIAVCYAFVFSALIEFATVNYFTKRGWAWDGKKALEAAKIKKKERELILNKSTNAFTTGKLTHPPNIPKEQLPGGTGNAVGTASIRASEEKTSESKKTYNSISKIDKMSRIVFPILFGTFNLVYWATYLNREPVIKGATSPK
Sequence (P63079 26-473 partner): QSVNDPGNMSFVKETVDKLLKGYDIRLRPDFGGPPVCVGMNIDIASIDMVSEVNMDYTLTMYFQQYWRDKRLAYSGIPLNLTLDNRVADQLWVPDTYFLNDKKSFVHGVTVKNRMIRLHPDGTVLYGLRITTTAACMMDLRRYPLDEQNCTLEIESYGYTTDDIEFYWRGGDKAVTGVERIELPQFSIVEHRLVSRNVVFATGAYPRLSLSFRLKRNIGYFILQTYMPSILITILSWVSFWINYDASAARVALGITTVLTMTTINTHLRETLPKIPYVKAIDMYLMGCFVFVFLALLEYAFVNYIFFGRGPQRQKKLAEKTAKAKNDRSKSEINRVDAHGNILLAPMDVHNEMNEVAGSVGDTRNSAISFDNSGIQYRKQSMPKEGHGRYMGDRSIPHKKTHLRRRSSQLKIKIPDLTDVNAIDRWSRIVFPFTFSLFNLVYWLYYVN
Sequence (P18508 39-466): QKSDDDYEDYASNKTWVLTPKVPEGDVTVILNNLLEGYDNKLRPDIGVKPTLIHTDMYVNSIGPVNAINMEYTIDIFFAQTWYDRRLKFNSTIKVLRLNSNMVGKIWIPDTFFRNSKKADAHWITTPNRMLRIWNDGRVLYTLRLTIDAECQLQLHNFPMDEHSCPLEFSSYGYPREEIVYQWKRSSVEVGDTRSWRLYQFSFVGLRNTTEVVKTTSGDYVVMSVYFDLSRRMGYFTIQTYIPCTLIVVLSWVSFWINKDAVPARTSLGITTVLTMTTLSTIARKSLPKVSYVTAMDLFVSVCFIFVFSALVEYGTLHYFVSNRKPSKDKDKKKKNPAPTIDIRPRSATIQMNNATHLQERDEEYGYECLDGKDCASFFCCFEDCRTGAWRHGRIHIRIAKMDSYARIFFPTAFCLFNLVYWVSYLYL
measured_attribute: efficacy (% GABA EC3)

Some solved entries appear below for comparison.
# compound, system_under_test, efficacy (% GABA EC3)
rows = [
    ("CCc1c(C(=O)OC)ncc2[nH]c3cc(OC)c(OC)cc3c12 [DMCM]", "recombinant rat α5β3γ2 receptors (Rattus norvegicus, UniProt P18508+P19969)", "53 ± 4 % GABA EC3"),
    ("COCc1c(C(=O)OC(C)C)ncc2[nH]c3ccc(OCc4ccccc4)cc3c12 [Abecarnil]", "recombinant rat α5β3γ2 receptors (Rattus norvegicus, UniProt P18508+P19969)", "ns"),
    ("CCOC(=O)c1ncn2c1CN(C)C(=O)c1cc(F)ccc1-2 [Ro15–1788]", "recombinant rat α5β3γ2 receptors (Rattus norvegicus, UniProt P18508+P19969)", "ns"),
    ("CCOC(=O)c1ncn2c1C1CCCN1C(=O)c1cc(OC)ccc1-2 [L-655,708]", "recombinant rat α5β3γ2 receptors (Rattus norvegicus, UniProt P18508+P19969)", "ns"),
]

Then this compound:
Request: Query: efficacy (% GABA EC3); subject: CC(C)(C)OC(=O)c1ncn2c1[C@@H]1CCCN1C(=O)c1c(Br)cccc1-2 [Bretazenil]
Response: 168 ± 13 % GABA EC3
